Provide the recorded pIC50 for the entries that follow.
Friendly reminder that pIC50 comes from taking -log10 of the concentration in mol/L.

Test item O=c1[nH]c(=S)n(Cc2ccccc2[C@H]2CC(F)(F)CCN2)c2cc[nH]c12 (single isomer, unassigned) [Example 12a] ; MPO (purified from HL60 cells) (Homo sapiens (Human), UniProt P05164); reported pIC50 was 7.57

// molecule O=c1[nH]c(=S)n(Cc2ccc(Cl)cc2[C@H]2COCCN2)c2cc[nH]c12 (single isomer, unassigned) [Example 4b] , assay MPO (purified from HL60 cells) (Homo sapiens (Human), UniProt P05164), pIC50 value: 6.90

The recorded pIC50 with MPO (purified from HL60 cells) (Homo sapiens (Human), UniProt P05164) for O=c1[nH]c(=S)n(Cc2ncccc2[C@H]2C[C@@H](C(F)(F)F)CCN2)c2cc[nH]c12 (racemic) was 8.24

Lab entry: MPO (purified from HL60 cells) (Homo sapiens (Human), UniProt P05164) assay, molecule O=c1[nH]c(=S)n(Cc2ccccc2C2CCC(F)CN2)c2nc[nH]c12 (stereo not shown) , pIC50 = 7.80

The observed pIC50 for O=c1[nH]c(=S)n(Cc2ccncc2[C@H]2C[C@@H](C(F)(F)F)CCN2)c2cc[nH]c12 (racemic) when tested with MPO (purified from HL60 cells) (Homo sapiens (Human), UniProt P05164) stands at 7.94

The molecule O=c1[nH]c(=S)n(Cc2ccccc2[C@H]2C[C@@H](C(F)(F)F)CCN2)c2cc[nH]c12 (single isomer, unassigned) [Example 10a] on MPO (purified from HL60 cells) (Homo sapiens (Human), UniProt P05164): pIC50 was 8.22

Reading of pIC50 for O=c1[nH]c(=S)n(Cc2ccccc2[C@@H]2CCCCCN2)c2cc[nH]c12 (single isomer, unassigned) with MPO (purified from HL60 cells) (Homo sapiens (Human), UniProt P05164): 7.71
